Here is a set of compounds with reported Ki for Hepatocyte growth factor receptor (Homo sapiens), compiled from the literature.
resultType: Ki

Cc1c(C(=O)Nc2ccc(-c3cccc4c(N(C)CCCN(C)C)nccc34)cc2)c(=O)n(-c2ccccc2)n1CC(C)(C)O : 1450 nM
CCCC(=O)Nc1ccc(-c2cnc(N)c(-c3nnnn3-c3cccc(F)c3F)c2)cc1 : 100 to 1000 nM
Nc1ncc(-c2ccc(CN3CCCC3=O)cc2)cc1-c1nnnn1-c1cccc(F)c1F : ≤ 100 nM
O=C(NC[C@@H]1CCCO1)c1cc(-c2cnoc2-c2cccc(F)c2F)c[nH]1 : 1000 to 10000 nM
Cc1cnc2c(-c3cc(N4CCCCC4)ncn3)c(N)nn2c1 : < 500 nM
COC(=O)c1ccc(-c2cnc(N)c(-c3nnnn3-c3cccc(F)c3F)c2)cc1 : 100 to 1000 nM
CC(=O)Nc1ccc(-c2cnc(N)c(-c3nnnn3-c3cc(F)ccc3F)c2)cc1 : 100 to 1000 nM
CN1CCN(c2ccc(-c3cnc(N)c(-c4nc5cnccc5n4-c4cccc(F)c4F)c3)cc2)CC1 : ≤ 100 nM
C[C@@H](NC(=O)c1nc(Br)cnc1N)c1nnc2ccc(Nc3cccc(Cl)c3)nn12 : 250 to 2500 nM
Nc1nn2cc(C(=O)NCc3cccnc3)cnc2c1-c1ccccn1 : 500 to 5000 nM
CCN1CCC(n2cc(-c3cnc(N)c(-c4nnnn4-c4cccc(F)c4F)c3)cn2)CC1 : ≤ 100 nM
Cc1nnc(-c2cnc(N)c(-c3nnnn3-c3cccc(F)c3F)c2)s1 : 100 to 1000 nM
COc1cccc(-c2cnc(N)c(-c3nnnn3-c3cccc(F)c3F)c2)c1 : ≤ 100 nM
Nc1ncc(-c2ccc(N3CCNCC3)cc2)cc1-c1nc2cccnc2n1-c1cccc(Cl)c1F : 100 to 1000 nM
C=Cc1cnc2[nH]cc(-c3oncc3-c3cccc(F)c3F)c2c1 : < 200 nM
Nc1nn2cc(-c3ccc(CN4CCCNCC4)cc3)cnc2c1-c1ccccn1 : < 500 nM
CC(=O)Nc1cccc(-c2cnc(N)c(-c3nnnn3-c3cc(F)cc(F)c3Cl)c2)c1 : 100 to 1000 nM

---

Here is a set of molecules with reported Ki for Hepatocyte growth factor receptor (Homo sapiens, UniProt P08581), compiled from the literature.
resultType: Ki

CCN(CC)CCN(C)c1ccc(-c2cnc3c(-c4ccccn4)c(N)nn3c2)cn1 : < 500 nM
CS(=O)(=O)c1ccc(-c2cnc(N)c(-c3nnnn3-c3cccc(F)c3F)c2)cc1 : ≤ 100 nM
Nc1nn2cc(-c3ccc(C(=O)N4CCCC(CO)C4)cn3)cnc2c1-c1ccccn1 (stereo not shown) : < 500 nM
Nc1nn2cc(CCc3ccccc3)cnc2c1-c1ccccn1 : 500 to 5000 nM
Clc1cccc(Nc2ccc3nnc(COCc4cnccn4)n3n2)c1 : > 2500 nM
C[C@@H](c1ccc2ncccc2c1)c1nnc2sc(-c3cn(C)nc3C3CC3)nn12 : 7 nM
CN(C)c1cccc(-c2cnc3[nH]cc(-c4oncc4-c4cccc(F)c4F)c3c2)c1 : < 200 nM
CN(C)CC#Cc1cnc2[nH]cc(-c3oncc3-c3cccc(F)c3F)c2c1 : < 200 nM
Cc1nnc(-c2cc(-c3ccc(CN4CCCC4)cc3)cnc2N)n1-c1cccc(F)c1Cl : 100 to 1000 nM
Nc1ncc(-c2ccc(CN3CC4CC3CO4)cc2)cc1-c1nnnn1-c1cccc(F)c1F (stereo not shown) : ≤ 100 nM
Nc1nn2cc(-c3ccnc(N4CCN(Cc5ccccc5)CC4)c3)cnc2c1-c1ccccn1 : < 500 nM
CC(=O)Nc1ccc(-c2cnc(N)c(-c3nnnn3-c3cc(Cl)ccc3F)c2)cc1 : 100 to 1000 nM
CN(C)Cc1ccc(-c2cnc(N)c(-c3nnnn3-c3c(F)cccc3F)c2)cc1 : ≤ 100 nM
CCC(C)Nc1ccc2nnc([C@@H](C)NC(=O)c3nc(-c4ccc(NC(C)=O)cc4)cnc3N)n2n1 (stereo partly shown) : 250 to 2500 nM
Nc1ncc(-c2ccc(CN3CCCC3)cc2)cc1-c1nnnn1-c1c(F)ccc(F)c1Cl : ≤ 100 nM
Nc1ncc(-c2cnn(C3CCN(C(=O)CO)CC3)c2)cc1-c1nnnn1-c1cccc(Cl)c1F : ≤ 100 nM
CCc1nn(C)cc1-c1nn2c(Cc3c(F)cc4ncccc4c3F)nnc2s1 : 2.5 nM
CN1CCC(N(C)C(=O)c2cccc(-c3cnc4c(-c5ccccn5)c(N)nn4c3)n2)CC1 : < 500 nM
CCOC(=O)N1CCc2cc(-c3cnc(N)c(-c4nnnn4-c4cccc(F)c4F)c3)sc2CC1 : ≤ 100 nM
CN(C)C1CCC(c2cnc3[nH]cc(-c4oncc4-c4cccc(F)c4F)c3c2)CC1 (stereo not shown) : < 200 nM
CC(=O)N1CCC(n2cc(-c3cnc(N)c(-c4nnnn4-c4cccc(F)c4Cl)c3)cn2)CC1 : 100 to 1000 nM
Nc1ncc(-c2cccnc2)cc1-c1nnnn1-c1c(F)cccc1Cl : 100 to 1000 nM
Nc1ncc(-c2ccc(CN3CCCC3)cc2)cc1-c1nnnn1-c1cccc(Cl)c1 : 100 to 1000 nM
CC(=O)Nc1cccc(-c2cnc(N)c(-c3nnnn3-c3c(Cl)cccc3Cl)c2)c1 : 100 to 1000 nM
COc1cc2nc(N)[nH]c2cc1-c1cnc(N)c(-c2nnnn2-c2cccc(F)c2F)n1 : ≤ 100 nM
Nc1nn2cc(C(=O)NCc3ccccc3)cnc2c1-c1ccccn1 : 500 to 5000 nM
NC1CC=C(c2cnc3[nH]cc(-c4oncc4-c4cccc(F)c4F)c3c2)CC1 (stereo not shown) : < 200 nM
Nc1nn2cc(CCCNCC3CCCO3)cnc2c1-c1ccccn1 (stereo not shown) : < 500 nM
Nc1nn2cc(C(=O)NC3CCCNC3)cnc2c1-c1ccccn1 (stereo not shown) : 500 to 5000 nM
Nc1ncc(-c2cccc(C(=O)N3CCOCC3)c2)cc1-c1nnnn1-c1cccc(F)c1F : 100 to 1000 nM
Nc1ncc(-c2ccc(CN3CCCC3)c(F)c2)cc1-c1nnnn1-c1cccc(F)c1F : ≤ 100 nM
CCCN1CCC(n2cc(-c3cnc(N)c(-c4nnnn4-c4cccc(F)c4F)c3)cn2)CC1 : ≤ 100 nM
Nc1cccc(-c2cnc(N)c(-c3nnnn3-c3cccc(F)c3F)c2)c1 : ≤ 100 nM
Nc1ncc(-c2ccc(C(N)C(=O)O)cc2)cc1-c1nnnn1-c1cccc(F)c1F (stereo not shown) : 100 to 1000 nM

---

pKi: −log10 of the molar value.
Here is a set of molecules with reported pKi for Hepatocyte growth factor receptor (Homo sapiens, UniProt P08581), compiled from the literature.
resultType: pKi

C[C@@H](NC(=O)c1nc(C#Cc2ccncc2)cnc1N)c1nnc2ccc(Nc3cccc(Cl)c3)nn12 : 5.60 to 6.60
Nc1ncc(-c2cnn(CC3CCNC3)c2)cc1-c1nnnn1-c1cccc(F)c1F (centres unmarked) : ≥ 7.00
CC[C@H](C)Nc1cc(-c2c(N)nn3cc(C)cnc23)ncn1 : > 6.30
Cc1c(C(=O)Nc2ccc(-c3cccc4cnccc34)c(F)c2)c(=O)n(-c2ccccc2)n1C[C@@H](C)O : 7.21
Nc1ncc(-c2cnn(C3CCNCC3)c2)cc1-c1nnnn1-c1cc(Cl)ccc1Cl : 6.00 to 7.00
C[C@@H](c1ccc2ncccc2c1)n1nnc2ccn(-c3ccc(Cl)c(C(F)(F)F)c3)c(=O)c21 : 8.47
Cn1c(Nc2ccccc2)ncc(-c2ccc(Oc3ccnc(NC(=O)N4CCCC4)c3)cn2)c1=O : 7.96
CCCS(=O)(=O)N1CCC(n2cc(-c3cnc(N)c(-c4nnnn4-c4cccc(Cl)c4F)c3)cn2)CC1 : ≥ 7.00

---

Here is a set of molecules with reported Ki for Hepatocyte growth factor receptor (Homo sapiens, UniProt P08581), compiled from the literature.
resultType: Ki

Nc1nn2cc(CCCN3CCOCC3)cnc2c1-c1ccccn1 : 500 to 5000 nM
C[C@@H](NC(=O)c1cc(-c2ccccc2)cnc1N)c1nnc2ccc(Nc3cccc(Cl)c3)nn12 : ≤ 250 nM
Cc1cnc2c(-c3cc(N4CCC(c5ccccc5)C4)ncn3)c(N)nn2c1 (centres unmarked) : 500 to 5000 nM
Cn1cc(-c2cnc(N)c(-c3nnnn3-c3cccc(F)c3F)c2)cn1 : ≤ 100 nM
Cc1cnc2c(-c3cc(N4CCC[C@H]4CN4CCCC4)ncn3)c(N)nn2c1 : 500 to 5000 nM
Nc1ncc(-c2ccc(CN3CCCC3)cc2)cc1-c1nnnn1-c1c(F)ccc(F)c1F : ≤ 100 nM
Nc1ncc(C2=CCN(C(=O)[C@@H]3CCCN3)CC2)cc1-c1nnnn1-c1cccc(F)c1F : ≤ 100 nM
CN(Cc1ccc(-c2cnc(N)c(-c3nnnn3-c3cccc(Cl)c3Cl)c2)cc1)Cc1cccnc1 : 100 to 1000 nM

---

Here is a set of molecules with reported Ki for Hepatocyte growth factor receptor (Homo sapiens), compiled from the literature.
resultType: Ki

Nc1nn2cc(-c3ccc(NCCCC4=NCC=N4)nc3)cnc2c1-c1ccccn1 : < 0.5 µM
CCCN1CCc2cc(-c3cnc(N)c(-c4nnnn4-c4cccc(F)c4F)c3)sc2CC1 : ≤ 0.1 µM
COC[C@H]1CCCN1c1cc(-c2c(N)nn3cc(C)cnc23)ncn1 : < 0.5 µM
Nc1ncc(-c2cc3c(s2)CCNCC3)cc1-c1nnnn1-c1cccc(Cl)c1F : ≤ 0.1 µM
O=C1c2c(nnn2Cc2ccc3ncccc3c2)CCN1c1ccccc1 : 0.366 µM
Nc1ncc(-c2ccc(N3CCNCC3)cc2)cc1-c1nc2cnccc2n1-c1cccc(F)c1F : ≤ 0.1 µM
Cc1cnc2c(-c3cc(NC4CC4)ncn3)c(N)nn2c1 : < 0.5 µM
Nc1ncc(-c2cnn(C3CCCNCC3)c2)cc1-c1nnnn1-c1cccc(F)c1F (stereo not drawn) : ≤ 0.1 µM
CC1CN(Cc2ccc(-c3cnc(N)c(-c4nnnn4-c4cccc(Cl)c4Cl)c3)cc2)CC(C)O1 (stereo not drawn) : 0.1 to 1 µM
